Assay: Half life in Han Wistar rat at 0.2 mg/kg, iv and measured upto 24 hrs
Assay type: ADME, organism-based
Conditions: in vivo
READOUT: half-life (h)
Lab book: enter the figure in h, no units written.

Asked: Report half-life, nothing else, for this compound: Cn1cc(-c2ccc(CNc3cc(-c4cnc5cc(OCCCN6CCCC6)ccn45)ncn3)cc2)cn1
Given back: 6.8

---

Let's go through some pIC50 measurements on Mast/stem cell growth factor receptor Kit (Homo sapiens, UniProt P10721, DELTA560/V654A) together.
Sequence (P10721 whole entry, looked up, stated change not applied): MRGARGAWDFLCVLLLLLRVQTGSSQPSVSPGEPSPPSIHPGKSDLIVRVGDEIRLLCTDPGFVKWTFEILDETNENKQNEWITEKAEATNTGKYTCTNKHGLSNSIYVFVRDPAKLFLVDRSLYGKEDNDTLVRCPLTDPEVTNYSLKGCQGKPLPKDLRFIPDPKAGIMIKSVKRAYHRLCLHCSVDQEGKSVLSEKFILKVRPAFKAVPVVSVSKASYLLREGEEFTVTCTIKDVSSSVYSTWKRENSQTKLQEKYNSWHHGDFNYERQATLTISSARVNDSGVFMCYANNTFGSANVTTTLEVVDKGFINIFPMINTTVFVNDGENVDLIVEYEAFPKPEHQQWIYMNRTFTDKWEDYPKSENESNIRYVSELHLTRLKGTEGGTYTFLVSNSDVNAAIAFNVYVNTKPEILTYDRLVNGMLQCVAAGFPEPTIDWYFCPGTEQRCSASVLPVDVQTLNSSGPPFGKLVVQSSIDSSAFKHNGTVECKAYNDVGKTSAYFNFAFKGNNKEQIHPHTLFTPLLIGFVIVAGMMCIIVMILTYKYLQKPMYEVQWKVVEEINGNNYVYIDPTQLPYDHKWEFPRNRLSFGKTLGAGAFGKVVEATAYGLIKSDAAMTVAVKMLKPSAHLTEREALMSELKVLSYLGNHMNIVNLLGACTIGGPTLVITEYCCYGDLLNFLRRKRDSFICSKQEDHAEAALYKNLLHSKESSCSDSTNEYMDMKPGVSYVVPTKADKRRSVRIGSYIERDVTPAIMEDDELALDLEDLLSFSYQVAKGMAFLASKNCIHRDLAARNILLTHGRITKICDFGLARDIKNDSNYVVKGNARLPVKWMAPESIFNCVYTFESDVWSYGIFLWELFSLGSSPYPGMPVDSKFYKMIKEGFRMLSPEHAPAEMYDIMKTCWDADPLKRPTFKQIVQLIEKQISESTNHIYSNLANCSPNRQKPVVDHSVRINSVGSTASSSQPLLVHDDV
Quick note: pIC50 means taking -log10 of the concentration in moles per liter.

COMPOUND	pIC50
Cn1cc(-c2ccc(CNc3cc(-c4cnc5cc(OCCCN6CCCC6)ccn45)ncn3)cc2)cn1	7.32

Asked: Determine its reported pIC50: COc1ccn2c(-c3cc(NCc4ccc(-c5ccccc5)cc4)ncn3)cnc2c1
Given back: 6.80

Asked: Retrieve pIC50 measured for c1ccn2c(-c3nccc(NCc4ccc(N5CCCC5)cc4)n3)cnc2c1 and print it.
Given back: 6.17

Asked: Please give measured pIC50 of the following entry: COCCOc1ccn2c(-c3cc(NCc4ccc(-c5cnn(C)c5)cc4)ncn3)cnc2c1
Given back: 7.32

Asked: Please report the measured pIC50 for c1ccc(-c2ccc(CNc3ccnc(-c4cnc5ccccn45)n3)cc2)cc1
Given back: 6.47

Asked: Respond only with pIC50 recorded for CC(Nc1cncc(-c2cnc3ccccn23)c1)c1ccc(N2CCCC2)nc1 (stereo not given)
Given back: 5.59

Asked: For the compound Cn1cc(-c2ccc(CNc3cc(-c4cnc5cc(OCCCNC6COC6)ccn45)ncn3)cc2)cn1 , give its reported pIC50.
Given back: 7.25
